System: P100 membrane fraction of Caco-2 cells
TEST METHOD NOTES: Dansylated peptide ELISA: relative binding of PAX2 and HAX42 peptides to P100 fractions (ratio to ZElan021)
CONDITION LABEL: HAX42 peptides, 25 μg/ml, second column; ratio to ZElan021 = 1.00
Ends that are not written are not given here. * marks the point of attachment. Dansyl = CN(C)c1cccc2c(S(=O)(=O)*)cccc12; K(dns) = dansyl-lysine
Documented Binding value at 25 μg/ml across a set of substances
Reply briefly: the number, and no unit.

Documented Binding value at 25 μg/ml of H2N—K(dns)SDNAKEPGDYNCCGNGNSTG ({K(dns)}-SDNAKEPGDYNCCGNGNSTG-NH2; cysteine pairing not given here) [ZElan088] : 1.41

New cases:
Documented Binding value at 25 μg/ml of H2N—K(dns)SDHALGTNLRSDNAKEPGDY ({K(dns)}-SDHALGTNLRSDNAKEPGDY; not fully specified (C-terminus); printed as H2N—K(dns)SDHALGTNLRSDNAKEPGDY) [ZElan087] : 0.44

Documented Binding value at 25 μg/ml of H2N—K(dns)PGDYNCCGNGNSTG [ZElan091] : 1.37

Documented Binding value at 25 μg/ml of H2N—K(dns)NCCGNGNSTG ({K(dns)}-NCCGNGNSTG-NH2; cysteine pairing not given here) [ZElan093] : 1.37

Documented Binding value at 25 μg/ml of H2N—K(dns)PGDYNCCGNG ({K(dns)}-PGDYNCCGNG-NH2; cysteine pairing not given here) [ZElan092] : 1.90

Documented Binding value at 25 μg/ml of H2N—K(dns)SDHALGTNLRSDNAK ({K(dns)}-SDHALGTNLRSDNAK; not fully specified (C-terminus); printed as H2N—K(dns)SDHALGTNLRSDNAK) [ZElan089] : 0.44

Documented Binding value at 25 μg/ml of H-K(Dansyl)SDHALGTNLRSDNAKEPGDYNCCGNGNSTGRKVFNRRRPSAIPT-NH2 (cysteines drawn unpaired) [ZElan021] : 1.00
